target: NaV 1.7 channel (Homo sapiens, UniProt Q15858); assay: Optical membrane potential assay, NaV 1.7 inhibition; conditions: activity against NaV 1.7 channel
Sequence (Q15858 whole entry): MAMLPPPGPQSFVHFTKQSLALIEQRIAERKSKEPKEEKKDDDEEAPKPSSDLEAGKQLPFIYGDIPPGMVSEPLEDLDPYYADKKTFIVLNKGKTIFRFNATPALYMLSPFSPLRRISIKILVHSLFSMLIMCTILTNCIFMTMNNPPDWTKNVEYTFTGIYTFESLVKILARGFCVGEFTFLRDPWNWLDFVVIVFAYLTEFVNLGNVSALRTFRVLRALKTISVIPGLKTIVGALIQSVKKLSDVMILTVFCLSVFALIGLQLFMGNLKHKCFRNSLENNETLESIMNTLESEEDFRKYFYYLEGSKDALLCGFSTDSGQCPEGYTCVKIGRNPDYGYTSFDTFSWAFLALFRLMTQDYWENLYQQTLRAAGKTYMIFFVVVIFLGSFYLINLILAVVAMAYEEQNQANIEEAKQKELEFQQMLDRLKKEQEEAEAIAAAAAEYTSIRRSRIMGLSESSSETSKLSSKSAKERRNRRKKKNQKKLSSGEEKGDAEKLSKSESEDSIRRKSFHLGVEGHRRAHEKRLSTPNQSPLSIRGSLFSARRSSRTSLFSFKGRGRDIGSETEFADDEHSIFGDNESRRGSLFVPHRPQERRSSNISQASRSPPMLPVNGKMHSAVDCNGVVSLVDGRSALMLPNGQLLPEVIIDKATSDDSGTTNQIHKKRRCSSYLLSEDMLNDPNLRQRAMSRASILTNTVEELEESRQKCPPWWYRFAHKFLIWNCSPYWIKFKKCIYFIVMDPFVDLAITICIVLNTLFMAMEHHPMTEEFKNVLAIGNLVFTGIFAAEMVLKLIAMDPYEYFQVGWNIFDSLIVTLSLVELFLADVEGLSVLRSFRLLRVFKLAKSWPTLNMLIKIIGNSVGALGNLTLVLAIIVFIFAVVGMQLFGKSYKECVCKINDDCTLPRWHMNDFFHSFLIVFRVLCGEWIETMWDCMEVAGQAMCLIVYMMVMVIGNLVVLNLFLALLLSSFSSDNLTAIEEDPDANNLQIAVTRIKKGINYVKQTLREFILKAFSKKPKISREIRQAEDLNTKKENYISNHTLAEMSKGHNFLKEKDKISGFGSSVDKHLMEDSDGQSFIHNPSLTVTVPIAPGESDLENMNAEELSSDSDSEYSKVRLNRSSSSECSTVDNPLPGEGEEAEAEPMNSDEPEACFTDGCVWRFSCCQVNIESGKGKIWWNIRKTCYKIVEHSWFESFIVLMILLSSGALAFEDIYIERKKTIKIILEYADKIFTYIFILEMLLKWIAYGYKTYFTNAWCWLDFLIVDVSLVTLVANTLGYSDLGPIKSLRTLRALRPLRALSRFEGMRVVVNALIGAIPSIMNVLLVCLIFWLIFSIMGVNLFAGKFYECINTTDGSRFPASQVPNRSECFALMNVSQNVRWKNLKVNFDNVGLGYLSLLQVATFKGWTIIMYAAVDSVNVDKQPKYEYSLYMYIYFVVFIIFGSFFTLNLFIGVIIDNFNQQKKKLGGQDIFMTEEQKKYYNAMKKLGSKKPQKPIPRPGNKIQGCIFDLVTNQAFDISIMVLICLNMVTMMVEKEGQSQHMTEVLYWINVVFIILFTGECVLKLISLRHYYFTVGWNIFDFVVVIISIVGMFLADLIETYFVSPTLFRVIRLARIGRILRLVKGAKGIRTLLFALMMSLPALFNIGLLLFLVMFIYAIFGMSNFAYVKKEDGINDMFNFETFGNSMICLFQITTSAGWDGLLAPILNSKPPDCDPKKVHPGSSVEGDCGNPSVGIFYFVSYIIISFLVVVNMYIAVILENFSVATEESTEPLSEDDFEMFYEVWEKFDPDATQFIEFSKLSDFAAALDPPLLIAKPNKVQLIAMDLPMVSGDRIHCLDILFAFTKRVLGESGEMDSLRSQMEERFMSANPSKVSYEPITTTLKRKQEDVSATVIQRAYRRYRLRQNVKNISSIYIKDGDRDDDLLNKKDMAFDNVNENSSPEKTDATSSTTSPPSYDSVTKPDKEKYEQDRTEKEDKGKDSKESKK
quantity_measured: IC50

Worked examples, 5 molecules total:
Prompt line: State the measured IC50 (NaV 1.7 channel (Homo sapiens, UniProt Q15858)) of `CCN(CC)Cc1oc(-c2ccccc2)cc1C(=O)Nc1cccc(S(N)(=O)=O)c1`
Response line: 2 to 10 µM

Prompt line: State the measured IC50 (NaV 1.7 channel (Homo sapiens, UniProt Q15858)) of Cc1oc(C(C)(C)C)cc1C(=O)Nc1cccc(S(N)(=O)=O)c1 [Compound 18]
Response line: 10 to 20 µM

Prompt line: State the measured IC50 (NaV 1.7 channel (Homo sapiens, UniProt Q15858)) of `COc1ccc(-c2cc(C(=O)Nc3cccc(S(N)(=O)=O)c3)on2)cc1`
Response line: > 20 µM

Prompt line: State the measured IC50 (NaV 1.7 channel (Homo sapiens, UniProt Q15858)) of `Cc1oc(C(C)(C)C)c(CN2CCOCC2)c1C(=O)Nc1cccc(S(N)(=O)=O)c1`
Response line: 10 to 20 µM

Prompt line: State the measured IC50 (NaV 1.7 channel (Homo sapiens, UniProt Q15858)) of `NS(=O)(=O)c1cccc(NC(=O)c2ccc(-c3cccc(C(F)(F)F)c3)o2)c1`
Response line: 10 to 20 µM

***
Prompt line: State the measured IC50 (NaV 1.7 channel (Homo sapiens, UniProt Q15858)) of `Cc1oc(CC(C)C)c(CN2CCCCC2)c1C(=O)Nc1cccc(S(N)(=O)=O)c1`
Response line: 2 to 10 µM

Prompt line: State the measured IC50 (NaV 1.7 channel (Homo sapiens, UniProt Q15858)) of `Cc1oc(C(C)(C)C)c(CO)c1C(=O)Nc1cccc(S(N)(=O)=O)c1`
Response line: 10 to 20 µM

Prompt line: State the measured IC50 (NaV 1.7 channel (Homo sapiens, UniProt Q15858)) of `COc1cccc(-c2cc(C(=O)Nc3cccc(S(N)(=O)=O)c3)no2)c1`
Response line: > 20 µM

Prompt line: State the measured IC50 (NaV 1.7 channel (Homo sapiens, UniProt Q15858)) of `Cc1oc(CC(C)C)c(CN2CCOCC2)c1C(=O)Nc1cccc(S(N)(=O)=O)c1`
Response line: 2 to 10 µM

Prompt line: State the measured IC50 (NaV 1.7 channel (Homo sapiens, UniProt Q15858)) of `CC(C)(C)c1nnc(C(=O)Nc2cccc(S(N)(=O)=O)c2)s1`
Response line: > 20 µM

Prompt line: State the measured IC50 (NaV 1.7 channel (Homo sapiens, UniProt Q15858)) of `Cc1coc(C)c1C(=O)Nc1cccc(S(N)(=O)=O)c1`
Response line: > 20 µM

Prompt line: State the measured IC50 (NaV 1.7 channel (Homo sapiens, UniProt Q15858)) of `Cc1oc(C(C)(C)C)nc1C(=O)Nc1cccc(S(N)(=O)=O)c1`
Response line: 10 to 20 µM

Prompt line: State the measured IC50 (NaV 1.7 channel (Homo sapiens, UniProt Q15858)) of `CC(C)(C)c1ccc(C(=O)Nc2cccc(S(N)(=O)=O)c2)cn1`
Response line: > 20 µM

Prompt line: State the measured IC50 (NaV 1.7 channel (Homo sapiens, UniProt Q15858)) of `Cc1nc(C(C)(C)C)sc1C(=O)Nc1cccc(S(N)(=O)=O)c1`
Response line: > 20 µM

Prompt line: State the measured IC50 (NaV 1.7 channel (Homo sapiens, UniProt Q15858)) of `Cc1ccc(OCc2occc2C(=O)Nc2cccc(S(N)(=O)=O)c2)cc1`
Response line: > 20 µM

Prompt line: State the measured IC50 (NaV 1.7 channel (Homo sapiens, UniProt Q15858)) of `NS(=O)(=O)c1cccc(NC(=O)c2cc(-c3ccccc3)on2)c1`
Response line: 10 to 20 µM

Prompt line: State the measured IC50 (NaV 1.7 channel (Homo sapiens, UniProt Q15858)) of `Cc1oc(CC(C)C)c(CN2CCCC2)c1C(=O)Nc1cccc(S(N)(=O)=O)c1`
Response line: 2 to 10 µM

Prompt line: State the measured IC50 (NaV 1.7 channel (Homo sapiens, UniProt Q15858)) of Cc1oc(C(C)(C)C)cc1C(=O)Nc1cccc(S(N)(=O)=O)c1 [Compound 3]
Response line: 10 to 20 µM
